System: NCI-H226
Assay: Antiproliferative activity against human NCI-H226 cells assessed as growth inhibition after 48 hrs by sulforhodamine B assay
Format: functional
Conditions: NCI-H226, 48 h
Measure: GI50 (nM)
The reply should be a number in nM, with the unit left off.

Below, 4 molecules whose answers are already recorded.
>>> value_reported("CNC(=O)c1cc(Oc2ccc3nc(NC(=O)Nc4ccc(Cl)c(C(F)(F)F)c4)sc3c2)ccn1")
2690
>>> value_reported("CNC(=O)c1cc(Oc2ccc3nc(NC(=O)Nc4ccc(Cl)c(Cl)c4)sc3c2)ccn1")
2280
>>> value_reported("CNC(=O)c1cc(Oc2ccc(NC(=O)Nc3ccc(Cl)c(C(F)(F)F)c3)cc2)ccn1")
2000
>>> value_reported("CNC(=O)c1cc(Oc2ccc3nc(NC(=O)c4cc(C(F)(F)F)cc(C(F)(F)F)c4)sc3c2)ccn1")
4150

Alright, here's another molecule for you.
Query: Returns the measured GI50 for the input molecule. Input: `CNC(=O)c1cc(Oc2ccc3nc(NC(=O)Nc4cc(C(F)(F)F)cc(C(F)(F)F)c4)sc3c2)ccn1`
Response: 1450

----------
System: NCI-H522
Assay: Antiproliferative activity against human NCI-H522 cells assessed as growth inhibition after 48 hrs by sulforhodamine B assay
Format: functional
Conditions: NCI-H522, 48 h
Each item that follows carries a reported LC50 (concentration killing 50% of cells).
The reply should be a number in µM, with the unit left off.

>>> value_reported("CNC(=O)c1cc(Oc2ccc3nc(NC(=O)c4cc(C(F)(F)F)cc(C(F)(F)F)c4)sc3c2)ccn1")
64.1

Query: Returns the measured LC50 (concentration killing 50% of cells) for the input molecule. Input: `CNC(=O)c1cc(Oc2ccc3nc(NC(=O)Nc4cc(C(F)(F)F)cc(C(F)(F)F)c4)sc3c2)ccn1`
Response: 8.1

----------
Test: Antiproliferative activity against human PC3 cells assessed as cell growth at 10^-6 M after 48 hrs by sulforhodamine B assay
Type: functional
Conditions: PC-3, 48 h, read-out: Activity
Measure: growth at 1 µM (%)
The reply should be a number in %, with the unit left off.

Below, 3 compounds whose answers are already recorded.
>>> value_reported("CNC(=O)c1cc(Oc2ccc3nc(NC(=O)Nc4ccc(Cl)c(Cl)c4)sc3c2)ccn1")
92
>>> value_reported("CNC(=O)c1cc(Oc2ccc3nc(NC(=O)c4cc(C(F)(F)F)cc(C(F)(F)F)c4)sc3c2)ccn1")
80
>>> value_reported("CNC(=O)c1cc(Oc2ccc3nc(NC(=O)Nc4cc(C(F)(F)F)cc(C(F)(F)F)c4)sc3c2)ccn1")
37

Query: Returns the measured growth at 1 µM for the input compound. Input: `CNC(=O)c1cc(Oc2ccc3nc(NC(=O)Nc4ccc(Cl)c(C(F)(F)F)c4)sc3c2)ccn1`
Response: 71

----------
System: SN12C
Experiment: Antiproliferative activity against human SN12C cells assessed as cell growth at 10^-4 M after 48 hrs by sulforhodamine B assay
Assay type: functional
Details: read-out: Activity
Each item that follows carries a reported growth at 100 µM.
The reply should be a number in %, with the unit left off.

>>> value_reported("CNC(=O)c1cc(Oc2ccc3nc(NC(=O)Nc4cc(C(F)(F)F)cc(C(F)(F)F)c4)sc3c2)ccn1")
-60
>>> value_reported("CNC(=O)c1cc(Oc2ccc3nc(NC(=O)Nc4ccc(Cl)c(Cl)c4)sc3c2)ccn1")
9
>>> value_reported("CNC(=O)c1cc(Oc2ccc3nc(NC(=O)c4cc(C(F)(F)F)cc(C(F)(F)F)c4)sc3c2)ccn1")
-53

Alright, here's another molecule for you.
Query: // lookup growth at 100 µM | system=SN12C | key= `CNC(=O)c1cc(Oc2ccc3nc(NC(=O)Nc4ccc(Cl)c(C(F)(F)F)c4)sc3c2)ccn1`
Response: 12

----------
Test: Antiproliferative activity against human RXF393 cells assessed as cell growth at 10^-6 M after 48 hrs by sulforhodamine B assay
Format: functional
Details: RXF 393, 48 h, read-out: Activity
Each item that follows carries a reported growth at 1 µM.
The reply should be a number in %, with the unit left off.

Query: Returns the measured growth at 1 µM for the input compound. Input: `CNC(=O)c1cc(Oc2ccc3nc(NC(=O)Nc4cc(C(F)(F)F)cc(C(F)(F)F)c4)sc3c2)ccn1`
Response: 63

Query: Subsequent entry: `CNC(=O)c1cc(Oc2ccc3nc(NC(=O)Nc4ccc(Cl)c(Cl)c4)sc3c2)ccn1`
Response: 94

Query: Subsequent entry: `CNC(=O)c1cc(Oc2ccc3nc(NC(=O)Nc4ccc(Cl)c(C(F)(F)F)c4)sc3c2)ccn1`
Response: 88

Query: Subsequent entry: `CNC(=O)c1cc(Oc2ccc3nc(NC(=O)c4cc(C(F)(F)F)cc(C(F)(F)F)c4)sc3c2)ccn1`
Response: 97

----------
Assay: Antiproliferative activity against human RXF393 cells assessed as cell growth at 10^-5 M after 48 hrs by sulforhodamine B assay
Format: functional
Conditions: RXF 393, 48 h, read-out: Activity
Rule: growth at 10 µM under 90% gives 0, otherwise 1.

Completed entries (count: 10):
>>> discrete_label("CNC(=O)c1cc(Oc2ccc3nc(NC(=O)Nc4ccc(Cl)c(Cl)c4)sc3c2)ccn1")
0
>>> discrete_label("CNC(=O)c1cc(Oc2ccc3nc(NC(=O)Nc4ccc(Cl)c(C(F)(F)F)c4)sc3c2)ccn1")
0
>>> discrete_label("CNC(=O)c1cc(Oc2ccc3nc(NC(=O)Nc4cc(C(F)(F)F)cc(C(F)(F)F)c4)sc3c2)ccn1")
0
>>> discrete_label("CNC(=O)c1cc(Oc2ccc3nc(NC(=O)c4cc(C(F)(F)F)cc(C(F)(F)F)c4)sc3c2)ccn1")
0
>>> discrete_label("CNC(=O)c1cc(Oc2ccc3nc(NC(=O)Nc4ccc(C(F)(F)F)cc4)sc3c2)ccn1")
0
>>> discrete_label("CNC(=O)c1cc(Oc2ccc3nc(NC(=O)Nc4ccc(Cl)cc4)sc3c2)ccn1")
0
>>> discrete_label("CNC(=O)c1cc(Oc2ccc3nc(NC(=O)c4cccc(F)n4)sc3c2)ccn1")
1
>>> discrete_label("CNC(=O)c1cc(Oc2ccc3nc(NC(=O)c4ccc(Cl)c(C(F)(F)F)c4)sc3c2)ccn1")
0
>>> discrete_label("CNC(=O)c1cc(Oc2ccc3nc(NC(=O)c4ccc5c(c4)OCCO5)sc3c2)ccn1")
1
>>> discrete_label("CNC(=O)c1cc(Oc2ccc3nc(NC(=O)c4ccc5ncccc5c4)sc3c2)ccn1")
1

Could you now consider this next compound?
Query: API: above_or_equal(metric=growth at 10 µM, cutoff=90%) for item `CNC(=O)c1cc(Oc2ccc3nc(NC(=O)Nc4ccc(F)cc4F)sc3c2)ccn1`
Response: 0

----------
Experiment: Antiproliferative activity against human OVCAR8 cells assessed as cell growth at 10^-8 M after 48 hrs by sulforhodamine B assay
Type: functional
Settings: OVCAR-8, 48 h, read-out: Activity
Each item that follows carries a reported growth at 0.01 µM.
The reply should be a number in %, with the unit left off.

Below, 3 molecules whose answers are already recorded.
>>> value_reported("CNC(=O)c1cc(Oc2ccc3nc(NC(=O)Nc4cc(C(F)(F)F)cc(C(F)(F)F)c4)sc3c2)ccn1")
102
>>> value_reported("CNC(=O)c1cc(Oc2ccc3nc(NC(=O)Nc4ccc(Cl)c(C(F)(F)F)c4)sc3c2)ccn1")
105
>>> value_reported("CNC(=O)c1cc(Oc2ccc3nc(NC(=O)Nc4ccc(Cl)c(Cl)c4)sc3c2)ccn1")
103

Alright, here's another molecule for you.
Query: Returns the measured growth at 0.01 µM for the input molecule. Input: `CNC(=O)c1cc(Oc2ccc3nc(NC(=O)c4cc(C(F)(F)F)cc(C(F)(F)F)c4)sc3c2)ccn1`
Response: 97

----------
Assay: Antiproliferative activity against human BT549 cells assessed as cell growth at 10^-8 M after 48 hrs by sulforhodamine B assay
Type: functional
Conditions: BT-549, 48 h, read-out: Activity
Each item that follows carries a reported growth at 0.01 µM.
The reply should be a number in %, with the unit left off.

>>> value_reported("CNC(=O)c1cc(Oc2ccc3nc(NC(=O)Nc4ccc(Cl)c(C(F)(F)F)c4)sc3c2)ccn1")
95
>>> value_reported("CNC(=O)c1cc(Oc2ccc3nc(NC(=O)Nc4ccc(Cl)c(Cl)c4)sc3c2)ccn1")
94
>>> value_reported("CNC(=O)c1cc(Oc2ccc3nc(NC(=O)Nc4cc(C(F)(F)F)cc(C(F)(F)F)c4)sc3c2)ccn1")
89

Alright, here's another molecule for you.
Query: Returns the measured growth at 0.01 µM for the input molecule. Input: `CNC(=O)c1cc(Oc2ccc3nc(NC(=O)c4cc(C(F)(F)F)cc(C(F)(F)F)c4)sc3c2)ccn1`
Response: 97

----------
Test system: NCI-H23
Assay: Antiproliferative activity against human NCI-H23 cells assessed as cell growth at 10^-4 M after 48 hrs by sulforhodamine B assay
Assay type: functional
Conditions: NCI-H23, 48 h, read-out: Activity
Each item that follows carries a reported growth at 100 µM.
The reply should be a number in %, with the unit left off.

Below, 3 compounds whose answers are already recorded.
>>> value_reported("CNC(=O)c1cc(Oc2ccc3nc(NC(=O)Nc4ccc(Cl)c(C(F)(F)F)c4)sc3c2)ccn1")
-40
>>> value_reported("CNC(=O)c1cc(Oc2ccc3nc(NC(=O)Nc4cc(C(F)(F)F)cc(C(F)(F)F)c4)sc3c2)ccn1")
-52
>>> value_reported("CNC(=O)c1cc(Oc2ccc3nc(NC(=O)c4cc(C(F)(F)F)cc(C(F)(F)F)c4)sc3c2)ccn1")
-45

Alright, here's another compound for you.
Query: Returns the measured growth at 100 µM for the input compound. Input: `CNC(=O)c1cc(Oc2ccc3nc(NC(=O)Nc4ccc(Cl)c(Cl)c4)sc3c2)ccn1`
Response: 6

These measurements were taken from ChEMBL document CHEMBL3797052.
